MIC tested on Staphylococcus aureus ATCC 43300: recorded values

Query Smiles	Relation Symbol	MIC, µM
CC[C@H](C)[C@@H]1NC(=O)[C@H](CCCCN)NC(=O)[C@@H](NC(=O)[C@H](CC(C)C)NC(=O)[C@@H](NC(=O)[C@H](CCC(N)=O)NC(=O)[C@@H]2CCCN2C(=O)[C@H](CC(C)C)NC(=O)[C@H](Cc2ccccc2)NC(=O)[C@H](CC(N)=O)NC(=O)[C@H](C)NC(=O)[C@H](C)NC(=O)[C@@H](N)CC(C)C)[C@@H](C)CC)CSSC[C@@H](C(N)=O)NC(=O)[C@H](CCCCN)NC(=O)[C@H](CCCN=C(N)N)NC(=O)[C@H](C)NC1=O	=	26.3
CC[C@H](C)[C@H](NC(=O)[C@H](CCCCN)NC(=O)[C@@H](N)CCCN=C(N)N)C(=O)N[C@@H](CCCN=C(N)N)C(=O)N[C@@H](CCCN=C(N)N)C(=O)N[C@@H](CCCCN)C(=O)N[C@@H](Cc1c[nH]c2ccccc12)C(=O)N[C@@H](CCCCN)C(=O)N[C@@H](CCCN=C(N)N)C(N)=O	>	37.7
CC[C@H](C)[C@H](NC(=O)CNC(=O)[C@H](C)NC(=O)[C@H](CC(C)C)NC(=O)[C@H](C)NC(=O)[C@@H]1CCCN1C(=O)[C@H](CC(C)C)NC(=O)[C@@H](N)Cc1ccccc1)C(=O)N[C@@H](C)C(=O)NCC(=O)N[C@@H](CC(C)C)C(=O)N[C@@H](CC(C)C)C(=O)NCC(=O)N[C@@H](CCCCN)C(=O)N[C@H](C(=O)N[C@@H](Cc1ccccc1)C(N)=O)[C@@H](C)CC	=	3.1
CC[C@H](C)[C@H](NC(=O)[C@H](Cc1cnc[nH]1)NC(=O)[C@@H]1CCCN1C(=O)[C@@H](NC(=O)[C@H](CC(C)C)NC(=O)[C@H](CO)NC(=O)[C@H](CC(C)C)NC(=O)[C@@H](N)Cc1ccccc1)[C@@H](C)CC)C(=O)N[C@H](C(=O)N[C@@H](CO)C(=O)NCC(=O)N[C@H](C(=O)N[C@@H](C)C(=O)N[C@@H](CO)C(=O)N[C@@H](CC(C)C)C(=O)N[C@@H](C)C(=O)N[C@@H](CCCCN)C(=O)N[C@@H](Cc1cnc[nH]1)C(=O)N[C@@H](Cc1ccccc1)C(N)=O)C(C)C)C(C)C	=	6.25
CC[C@H](C)[C@H](NC(=O)[C@H](Cc1c[nH]c2ccccc12)NC(=O)[C@H](CCCN=C(N)N)NC(=O)[C@H](CC(C)C)NC(=O)[C@@H](NC(=O)[C@H](CCCN=C(N)N)NC(=O)[C@H](CCCN=C(N)N)NC(=O)[C@H](C)NC(=O)[C@H](C)N)[C@@H](C)CC)C(=O)N[C@@H](Cc1ccccc1)C(=O)N[C@@H](CCCN=C(N)N)C(N)=O	=	8

* * *

Lab note: MIC readings collected with Staphylococcus aureus ATCC 25923 for the following molecules.
Measured Attribute: MIC (µM)

Query Smiles	Measured Attribute	Reported Value
CC[C@H](C)[C@H](NC(=O)[C@H](CC(C)C)NC(=O)[C@H](CCCN=C(N)N)NC(=O)[C@H](Cc1c[nH]c2ccccc12)NC(=O)[C@@H]1CCCN1C(=O)[C@H](Cc1c[nH]c2ccccc12)NC(=O)[C@H](Cc1c[nH]c2ccccc12)NC(=O)[C@@H]1CCCN1C(=O)[C@H](Cc1c[nH]c2ccccc12)NC(=O)[C@H](CCCN=C(N)N)NC(=O)[C@H](CCCN=C(N)N)NC(=O)[C@@H](N)CCCCN)C(N)=O	MIC	4.49
CC(C)C[C@H](NC(=O)[C@H](C)NC(=O)[C@H](CCCCN)NC(=O)[C@H](C)NC(=O)[C@H](CC(C)C)NC(=O)[C@H](CC(=O)O)NC(=O)[C@@H](N)CCC(=O)O)C(=O)N[C@@H](C)C(=O)N[C@@H](CCCCN)C(=O)N[C@@H](CCCCN)C(=O)O	MIC	2300
